biological target: human P2X4 (Homo sapiens, UniProt Q99571); experiment: Human P2X4 HEK Cell FLIPR Assay; settings: HEK293 cells, agonist Bz-ATP at EC80; individual values listed where some fall outside detection range
property: IC50 (nM)
Reply with just the number (in nM).

Need IC50 of NS(=O)(=O)c1cc(NC(=O)Cc2cc(F)cc(F)c2)ccc1-n1cc(C(F)(F)F)cn1 [Example 115] , thanks.
802

Need IC50 of Cc1ncsc1-c1ccc(NC(=O)Cc2ccccc2Cl)cc1S(N)(=O)=O [Example 504] , thanks.
33

Need IC50 of NS(=O)(=O)c1cc(NC(=O)Cc2ccccc2Cl)ccc1-c1cnn(C2CCCCO2)c1 (stereo not shown) [Example 345] , thanks.
46

Need IC50 of NS(=O)(=O)c1cc(NC(=O)Cc2ccc(F)c(F)c2)ccc1-c1cncc(C(F)(F)F)c1 [Example 451] , thanks.
244

###

Provide the recorded pIC50 for the entries that follow.
Target: human P2X4 (Homo sapiens)
Sequence (Q99571 1-388): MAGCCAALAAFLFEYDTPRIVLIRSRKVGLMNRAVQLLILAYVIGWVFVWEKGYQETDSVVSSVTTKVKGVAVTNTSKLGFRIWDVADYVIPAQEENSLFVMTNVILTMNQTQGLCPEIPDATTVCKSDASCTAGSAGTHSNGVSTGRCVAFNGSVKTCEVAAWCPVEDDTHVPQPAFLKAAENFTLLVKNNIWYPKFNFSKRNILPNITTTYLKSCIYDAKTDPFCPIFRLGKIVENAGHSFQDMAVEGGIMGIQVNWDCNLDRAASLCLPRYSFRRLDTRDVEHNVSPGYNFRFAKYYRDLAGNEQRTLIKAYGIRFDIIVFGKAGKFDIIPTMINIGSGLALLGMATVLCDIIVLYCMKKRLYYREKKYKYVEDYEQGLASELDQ
Assay: Human P2X4 HEK Cell FLIPR Assay
Settings: HEK293 cells, agonist Bz-ATP at EC80; individual values listed where some fall outside detection range
Note on pIC50: it is the negative log10 of concentration, concentration in mol/L.

Need pIC50 of Cc1ncc(-c2ccc(NC(=O)Cc3ccccc3Cl)cc2S(N)(=O)=O)s1 [Example 423] , thanks.
7.28

Need pIC50 of NS(=O)(=O)c1cc(NC(=O)Cc2ccccc2Cl)ccc1-c1cnsc1 [Example 426] , thanks.
7.62

Need pIC50 of COc1ncc(-c2ccc(NC(=O)Cc3ccccc3Cl)cc2S(N)(=O)=O)s1 [Example 422] , thanks.
7.34

Need pIC50 of N#Cc1cnn(-c2ccc(NC(=O)Cc3cccc(C(F)(F)F)c3Cl)cc2S(N)(=O)=O)c1 [Example 206] , thanks.
7.54

Need pIC50 of NS(=O)(=O)c1cc(NC(=O)Cc2ccccc2C(F)(F)F)ccc1-n1cc(Br)cn1 [Example 64] , thanks.
6.98

Need pIC50 of NS(=O)(=O)c1cc(NC(=O)Cc2ccc(C(F)F)cc2)ccc1-c1cncc(F)c1 [Example 477] , thanks.
6.59

Need pIC50 of NS(=O)(=O)c1cc(NC(=O)Cc2ccccc2Cl)ccc1-c1cncc(F)c1 [Example 327] , thanks.
7.96

Need pIC50 of NS(=O)(=O)c1cc(NC(=O)Cc2c(F)cc(F)cc2Cl)ccc1-n1cc(Cl)cn1 [Example 102] , thanks.
7.00

###

Target: UniProtKB Q99571
Sequence (Q99571 1-388): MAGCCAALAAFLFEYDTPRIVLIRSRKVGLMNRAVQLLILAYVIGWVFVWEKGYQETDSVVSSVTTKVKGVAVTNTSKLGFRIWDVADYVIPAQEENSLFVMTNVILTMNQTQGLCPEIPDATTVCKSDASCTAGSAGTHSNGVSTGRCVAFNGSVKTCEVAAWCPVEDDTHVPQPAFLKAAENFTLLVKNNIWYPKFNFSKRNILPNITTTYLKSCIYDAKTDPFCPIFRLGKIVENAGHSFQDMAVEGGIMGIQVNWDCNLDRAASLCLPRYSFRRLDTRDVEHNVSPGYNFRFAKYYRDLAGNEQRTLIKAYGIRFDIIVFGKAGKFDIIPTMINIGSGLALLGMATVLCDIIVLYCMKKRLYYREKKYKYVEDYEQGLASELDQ
Assay: Human P2X4 HEK Cell FLIPR Assay
Format: cell-based
Conditions: HEK293, HEK293 cells, agonist Bz-ATP at EC80; percentage of maximal inhibition; read-out: Human P2X4 HEK Cells (FLIPR Assay) avg Efficacy [%]
property: Emax (%)
Reply with just the number (in %).

Need Emax of Cc1ccccc1CC(=O)Nc1ccc(-n2cc(C(F)(F)F)cn2)c(S(N)(=O)=O)c1 , thanks.
79

Need Emax of NS(=O)(=O)c1cc(NC(=O)Cc2ccccc2Cl)ccc1-n1cnc2ccccc21 , thanks.
93

Need Emax of Cc1ccc(CC(=O)Nc2ccc(-n3ncc(C(F)(F)F)n3)c(S(N)(=O)=O)c2)cc1 , thanks.
74

Need Emax of NS(=O)(=O)c1cc(NC(=O)Cc2ccccc2Cl)ccc1-c1csc(C(F)(F)F)n1 , thanks.
28

Need Emax of NS(=O)(=O)c1cc(NC(=O)Cc2ccccc2Cl)ccc1-n1cc(C(=O)N2CCC2)cn1 , thanks.
91

Need Emax of N#Cc1ncn(-c2ccc(NC(=O)Cc3ccccc3Cl)cc2S(N)(=O)=O)n1 , thanks.
70

Need Emax of COc1ccc(CC(=O)Nc2ccc(-n3cc(C#N)cn3)c(S(N)(=O)=O)c2)c(Cl)c1 , thanks.
76

Need Emax of CCNc1ncc(-c2ccc(NC(=O)Cc3ccccc3Cl)cc2S(N)(=O)=O)cn1 , thanks.
69

Need Emax of NS(=O)(=O)c1cc(NC(=O)Cc2ccccc2Cl)ccc1-c1noc(C2CC2)n1 , thanks.
76

Need Emax of NS(=O)(=O)c1cc(NC(=O)Cc2ccc(F)cc2Cl)ccc1-n1cc(Cl)cn1 , thanks.
87

Need Emax of NS(=O)(=O)c1cc(NC(=O)Cc2ccccc2Cl)ccc1-c1cc[nH]c1 , thanks.
86

Need Emax of NS(=O)(=O)c1cc(NC(=O)Cc2ccccc2Cl)ccc1-c1cncc(N2CCCC2)c1 , thanks.
81

Need Emax of NS(=O)(=O)c1cc(NC(=O)Cc2ccccc2OC(F)(F)F)ccc1-n1cc(F)cn1 , thanks.
89

Need Emax of N#Cc1cnn(-c2ccc(NC(=O)Cc3ccc(F)c(F)c3)cc2S(N)(=O)=O)c1 , thanks.
60

Need Emax of NS(=O)(=O)c1cc(NC(=O)Cc2ccccc2Cl)ccc1-c1cnn(CC2CCO2)c1 (stereo not drawn) , thanks.
94

Need Emax of NS(=O)(=O)c1cc(NC(=O)Cc2c(Cl)cccc2C(F)(F)F)ccc1-n1cc(F)cn1 , thanks.
86

Need Emax of NS(=O)(=O)c1cc(NC(=O)Cc2c(Cl)cccc2Cl)ccc1-n1cc(Cl)cn1 , thanks.
96

Need Emax of Cc1ccc(F)c(CC(=O)Nc2ccc(-n3cc(F)cn3)c(S(N)(=O)=O)c2)c1Cl , thanks.
82

Need Emax of Cc1cnn(-c2ccc(NC(=O)Cc3ccccc3Cl)cc2S(N)(=O)=O)c1 , thanks.
74

Need Emax of Cc1cc(-c2ccc(NC(=O)Cc3ccccc3Cl)cc2S(N)(=O)=O)sn1 , thanks.
88

Need Emax of NS(=O)(=O)c1cc(NC(=O)Cc2cc(F)cc(F)c2)ccc1-c1cncc(C(F)(F)F)c1 , thanks.
65

Need Emax of Cc1ccc(CC(=O)Nc2ccc(-c3ccc(Cl)nc3)c(S(N)(=O)=O)c2)cc1 , thanks.
90

Need Emax of Cc1ccc(Cl)c(CC(=O)Nc2ccc(-n3cc(C#N)cn3)c(S(N)(=O)=O)c2)c1 , thanks.
91

Need Emax of NS(=O)(=O)c1cc(NC(=O)Cc2ccccc2Cl)ccc1-n1cnc2cccnc21 , thanks.
87

Need Emax of NS(=O)(=O)c1cc(NC(=O)Cc2ccccc2F)ccc1-c1ccc(Cl)nc1 , thanks.
84

Need Emax of NS(=O)(=O)c1cc(NC(=O)Cc2cccc(Cl)c2)ccc1-n1cc(C(F)(F)F)cn1 , thanks.
31

Need Emax of Cc1cccc(CC(=O)Nc2ccc(-n3cc(C(F)(F)F)cn3)c(S(N)(=O)=O)c2)c1 , thanks.
62

Need Emax of NS(=O)(=O)c1cc(NC(=O)Cc2ccc(C(F)(F)F)cc2)ccc1-c1cncc(C(F)(F)F)c1 , thanks.
76

Need Emax of COCCn1cc(-c2ccc(NC(=O)Cc3ccccc3Cl)cc2S(N)(=O)=O)cn1 , thanks.
103

Need Emax of NS(=O)(=O)c1cc(NC(=O)Cc2ccc(F)c(F)c2)ccc1-c1ccc(Cl)nc1 , thanks.
97

Need Emax of COc1cncc(-c2ccc(NC(=O)Cc3ccccc3Cl)cc2S(N)(=O)=O)c1 , thanks.
86

Need Emax of NS(=O)(=O)c1cc(NC(=O)Cc2cc(Cl)ccc2Cl)ccc1-n1cc(F)cn1 , thanks.
89

Need Emax of N#Cc1cnn(-c2ccc(NC(=O)Cc3cc(O)ccc3Cl)cc2S(N)(=O)=O)c1 , thanks.
94
